Molecular target: Neuropilin-1 (Homo sapiens)
Test: NRP-1 b1b2 CendR peptide binding inhibitors, dose response, biochemical, FP and AlphaScreen panel (AID 651650)
Conditions: NRP-1 b1b2 / RPARPAR peptide binding, FP or AlphaScreen; AlphaScreen, run 1; individual panel run IC50
pIC50: −log10 of the molar value.
METRIC NAME: pIC50

# COMPOUND, pIC50
measured = [
    ("COc1ccccc1COc1ccc2c(C)c(CC(=O)O)c(=O)oc2c1C", "< 4.00"),
    ("Cc1onc(-c2ccccc2)c1C(=O)N1CCCC1", "< 4.00"),
    ("c1cc(CNc2ccc3c(c2)OCO3)ccn1", "< 4.00"),
    ("COc1cc(OC)nc(NC(=O)COC(=O)c2cccc(Cl)c2)n1", 4.57),
    ("O=S1(=O)CCOC[C@H](Cc2ccccc2)N1Cc1ccccc1F", "< 4.00"),
    ("O=C(c1ccco1)N1CCN(C(=O)c2ccccc2OC(=O)C23CC4CC(CC(C4)C2)C3)CC1", 6.02),
    ("CCN(CC)C(=O)CSc1nnc(-c2c[nH]c3ccccc23)o1", "< 4.00"),
    ("Cc1ccc(C(=O)Nc2nnc([C@H]3C[C@H](O)[C@@H](CO)O3)s2)cc1", "< 4.00"),
    ("CCn1c(N)c(C(=O)NCc2cccnc2)sc1=S", 4.88),
    ("C/C(=N\\NC(=O)c1cc(O)ccc1O)c1cccc(NC(=O)c2cccc(Cl)c2)c1", "< 4.00"),
]

Consider the additional compound presented here.
The recorded pIC50 for entry CCC1CCCCN1CCCNC(=O)C1CCCN(S(=O)(=O)N2CC(C)CC(C)C2)C1 (stereo unspecified) equals 5.20

###

Target: Neuropilin-1 (Homo sapiens)
Experiment: NRP-1 b1b2 CendR peptide binding inhibitors, dose response, biochemical, FP and AlphaScreen panel (AID 651650)
Conditions: NRP-1 b1b2 / RPARPAR peptide binding, FP or AlphaScreen; AlphaScreen, run 1; individual panel run IC50
METRIC NAME: IC50

Worked cases, answers included:
# COMPOUND, ASSAY SYSTEM, ENDPOINT RESULT
data = [
    ("Cc1c(CC(=O)O)c(=O)oc2cc(OCc3ccc(F)cc3Cl)ccc12", "Neuropilin-1 (Homo sapiens)", "> 100 µM"),
    ("O=C(O)CSc1nnc(-c2ccc(Cl)cc2Cl)n1-c1ccc(Cl)cc1", "Neuropilin-1 (Homo sapiens)", "39.9 µM"),
    ("NC(=O)C1CCCN(C(=O)c2ccc3nc(Cc4cccc(Cl)c4)oc3c2)C1 (stereo not given)", "Neuropilin-1 (Homo sapiens)", "10.7 µM"),
    ("Cc1onc(-c2ccccc2)c1C(=O)Nc1c(C)n(C)n(-c2ccccc2)c1=O", "Neuropilin-1 (Homo sapiens)", "> 100 µM"),
    ("COc1ccc(Cl)cc1S(=O)(=O)N1CCN(CC(=O)C(C)(C)C)CC1", "Neuropilin-1 (Homo sapiens)", "> 100 µM"),
]

The recorded IC50 for entry "COC(=O)c1ccn(C(=O)c2ccc(Cl)cc2)n1" equals > 100 µM

The recorded IC50 for entry "CCN(CCCNC(=O)CNC(=O)c1nn(-c2ccc(OC)cc2OC)c(=O)c2ccccc12)c1cccc(C)c1" equals > 100 µM

The recorded IC50 for entry "O=C(Nc1ccccc1N1CCOCC1)c1ccc(N2CCCC2=O)cc1" equals > 100 µM

The recorded IC50 for entry "O=S(=O)(c1cc(Cl)cc(Cl)c1)N1Cc2cc(-c3ccccc3)ccc2-n2nncc2C1" equals > 100 µM

The recorded IC50 for entry "Cc1cc(C)n2c(SCC(=O)Nc3cccc(S(N)(=O)=O)c3)nnc2n1" equals > 100 µM

###

Below, each of the compounds is paired with its reported IC50 value.
Target: Neuropilin-1 (Homo sapiens) (UniProt O14786)
Sequence (O14786 whole entry, looked up): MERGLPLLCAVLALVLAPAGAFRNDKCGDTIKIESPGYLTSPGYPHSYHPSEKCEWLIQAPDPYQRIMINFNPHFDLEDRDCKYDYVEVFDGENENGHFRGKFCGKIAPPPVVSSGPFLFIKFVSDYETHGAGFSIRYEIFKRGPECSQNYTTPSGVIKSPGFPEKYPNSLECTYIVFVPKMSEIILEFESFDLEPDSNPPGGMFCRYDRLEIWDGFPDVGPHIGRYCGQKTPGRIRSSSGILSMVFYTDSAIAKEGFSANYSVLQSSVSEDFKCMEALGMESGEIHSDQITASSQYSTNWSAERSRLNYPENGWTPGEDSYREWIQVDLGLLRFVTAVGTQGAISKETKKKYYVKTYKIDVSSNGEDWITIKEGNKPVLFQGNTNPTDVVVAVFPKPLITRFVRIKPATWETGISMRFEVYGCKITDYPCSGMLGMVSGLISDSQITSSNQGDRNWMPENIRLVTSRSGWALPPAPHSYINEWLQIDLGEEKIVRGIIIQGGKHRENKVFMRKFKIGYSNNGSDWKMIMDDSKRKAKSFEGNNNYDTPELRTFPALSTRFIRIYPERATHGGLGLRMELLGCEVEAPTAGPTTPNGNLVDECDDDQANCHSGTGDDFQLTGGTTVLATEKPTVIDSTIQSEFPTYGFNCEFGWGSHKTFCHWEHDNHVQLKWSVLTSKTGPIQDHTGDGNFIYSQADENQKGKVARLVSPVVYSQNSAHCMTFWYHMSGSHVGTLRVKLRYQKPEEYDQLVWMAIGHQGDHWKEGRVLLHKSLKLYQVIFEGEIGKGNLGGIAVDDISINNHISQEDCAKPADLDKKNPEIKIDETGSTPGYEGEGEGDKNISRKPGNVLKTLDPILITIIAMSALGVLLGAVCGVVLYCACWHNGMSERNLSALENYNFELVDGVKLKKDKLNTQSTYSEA
Test: NRP-1 b1b2 CendR peptide binding inhibitors, dose response, biochemical, FP and AlphaScreen panel (AID 651650)
Settings: NRP-1 b1b2 / RPARPAR peptide binding, FP or AlphaScreen; AlphaScreen, run 1; individual panel run IC50

# COMPOUND, ENDPOINT RESULT
data = [
    ("CN(C(=O)COC(=O)c1nc(-c2ccccc2)n(-c2ccccc2)n1)C1CCS(=O)(=O)C1 (stereo not given)", "> 100 µM"),
]

The recorded IC50 for entry CCOC(=O)Cc1cnc(NC(=O)NC(C(=O)OCC)(c2ccccc2)C(F)(F)F)s1 (stereo not given) equals 25.1 µM

The recorded IC50 for entry Cn1cccc1C1Nc2ccccc2NC2=C1C(=O)CC(C)(C)C2 (stereo not given) equals > 100 µM

The recorded IC50 for entry "CN(c1ccccc1)S(=O)(=O)c1cccc(NC(=O)CSc2nncn2C)c1" equals > 100 µM

The recorded IC50 for entry C=C1C[C@@]23CCC4[C@@](C)(CCC[C@@]4(C)C(=O)O)C2CC[C@]1(O)C3 (stereo not given in full) equals > 100 µM

###

Molecular target: Neuropilin-1 (Homo sapiens)
Assay: NRP-1 b1b2 CendR peptide binding inhibitors, dose response, biochemical, FP and AlphaScreen panel (AID 651650)
Settings: NRP-1 b1b2 / RPARPAR peptide binding, FP or AlphaScreen; AlphaScreen, run 1; individual panel run IC50
pIC50: −log10 of the molar value.
METRIC NAME: pIC50

The recorded pIC50 for entry Cc1ccccc1-c1cnc(C(O)c2ccc(F)c(F)c2)[nH]1 (stereo not given) equals < 4.00

###

Biological target: UniProtKB O14786
Assay: NRP-1 b1b2 CendR peptide binding inhibitors, dose response, biochemical, FP and AlphaScreen panel (AID 651650)
Conditions: NRP-1 b1b2 / RPARPAR peptide binding, FP or AlphaScreen; AlphaScreen, run 1; individual panel run IC50
pIC50: −log10 of the molar value.
METRIC NAME: pIC50

Worked cases, answers included:
# COMPOUND, ASSAY SYSTEM, pIC50
data = [
    ("CCOC(=O)C1=C(C)NC2=C(C(=O)CCC2)C1c1cn(Cc2ccc(Cl)cc2Cl)nc1-c1ccccc1 (stereo not given)", "UniProtKB O14786", 4.45),
    ("Cc1nnc(NC(=O)c2ccccc2C(=O)O)s1", "UniProtKB O14786", 4.78),
    ("O=C(COc1ccc(S(=O)(=O)N2CCCC2)cc1)Nc1ccc2c(c1)OCCO2", "UniProtKB O14786", "< 4.00"),
    ("COc1ccc(C(=O)N[C@H](C(=O)Nc2nc3c(s2)CCCC3)C(C)C)cc1", "UniProtKB O14786", "< 4.00"),
    ("Cn1c(=O)c2[nH]c(COc3ccccc3)nc2n(C)c1=O", "UniProtKB O14786", "< 4.00"),
    ("Cn1c(=O)c2[nH]c(NCCCN3CCOCC3)nc2n(C)c1=O", "UniProtKB O14786", "< 4.00"),
    ("COc1ccc(CCN=C2SCC(=O)N2Cc2ccccc2)cc1OC", "UniProtKB O14786", "< 4.00"),
    ("O=C(Cc1ccc(F)cc1)N1CCN=C1SCc1ccc([N+](=O)[O-])cc1", "UniProtKB O14786", "< 4.00"),
]

The recorded pIC50 for entry "O=C(NCCN1CCN(C(=O)c2cccc(OC(F)F)c2)CC1)c1cccc(OC(F)F)c1" equals < 4.00

The recorded pIC50 for entry "COc1cc(C(=O)OCCCOC(=O)c2cc(OC)c(OC)c(OC)c2)cc(OC)c1OC" equals < 4.00

###

Target: Neuropilin-1 (Homo sapiens) (UniProt O14786)
Assay: NRP-1 b1b2 CendR peptide binding inhibitors, dose response, biochemical, FP and AlphaScreen panel (AID 651650)
Conditions: NRP-1 b1b2 / RPARPAR peptide binding, FP or AlphaScreen; FP, run 1; individual panel run IC50
pIC50: −log10 of the molar value.
METRIC NAME: pIC50

# COMPOUND SMILES, pIC50
data = [
    ("COc1cc(C(=O)OCCCOC(=O)c2cc(OC)c(OC)c(OC)c2)cc(OC)c1OC", "< 4.02"),
    ("CN(C)/N=C/c1ccc(Sc2ccc([N+](=O)[O-])cc2[N+](=O)[O-])o1", "< 4.02"),
    ("CCCn1c(C)cc(C(=O)CSc2nc3nc(C)cc(C)n3n2)c1C", "< 4.02"),
    ("O=C(O)CCCC(=O)N1CCc2cc(S(=O)(=O)N3CCc4ccccc43)ccc21", "< 4.02"),
]

Consider the additional compound presented here.
The recorded pIC50 for entry "CCO[C@@H]1OC(C(=O)NCc2ccccc2)=C[C@H](c2ccc(Br)cc2)[C@H]1CCCO" equals < 4.02

###

Target: Neuropilin-1 (Homo sapiens)
Test: NRP-1 b1b2 CendR peptide binding inhibitors, dose response, biochemical, FP and AlphaScreen panel (AID 651650)
Conditions: NRP-1 b1b2 / RPARPAR peptide binding, FP or AlphaScreen; FP, run 2; individual panel run IC50
METRIC NAME: IC50

Worked cases, answers included:
# MOLECULE, ENDPOINT RESULT
rows = [
    ("COc1ccc(Cl)cc1NC(=O)C(C)N1CCc2ccccc21 (stereo not given)", "30.3 µM"),
    ("Cc1cnccc1CNC(=O)CC1C(=O)NCCN1CC(C)(C)C (stereo not given)", "> 95 µM"),
    ("C=CCOc1ccc(C2/C(=C(\\O)c3c(C)[nH]c(C(=O)OC)c3C)C(=O)C(=O)N2CCN(C)C)cc1 (stereo not given)", "> 95 µM"),
    ("Cc1cc2cc(CNC(=O)c3ccc(S(=O)(=O)N4CCOCC4)cc3)ccc2n1C", "> 95 µM"),
]

Consider the additional molecule presented here.
The recorded IC50 for entry "COC(=O)c1c(NC(=O)CN(c2ccccc2)S(C)(=O)=O)sc2c1CCCC2" equals > 95 µM

These measurements were taken from PubChem BioAssay AID651650.
